Target: human TGR5 receptor (Homo sapiens, UniProt Q8TDU6)
Sequence (Q8TDU6 1-330): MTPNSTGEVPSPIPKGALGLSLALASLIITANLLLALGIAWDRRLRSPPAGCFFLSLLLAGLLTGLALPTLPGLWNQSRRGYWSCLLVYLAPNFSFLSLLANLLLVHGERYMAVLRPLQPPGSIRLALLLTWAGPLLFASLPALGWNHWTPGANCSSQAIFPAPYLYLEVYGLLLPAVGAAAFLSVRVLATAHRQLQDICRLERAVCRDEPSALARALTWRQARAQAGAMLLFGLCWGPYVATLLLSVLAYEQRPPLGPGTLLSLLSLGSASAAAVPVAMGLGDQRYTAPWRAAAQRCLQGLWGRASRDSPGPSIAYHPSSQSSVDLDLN
Test: TGR5 cAMP assay
Conditions: TGR5 agonist activity; cAMP production in a recombinant cell line expressing human TGR5 receptor
QUANTITY: EC50 (nM)
Give the number; nM is assumed, so skip it.

>  <SUBSTANCE_SMILES>
COCCOCCNC(=O)CC[C@@H](C)[C@H]1CC[C@H]2[C@@H]3[C@H](OC)C[C@@H]4C[C@H](O)CC[C@]4(C)[C@H]3CC[C@]12C

>  <UOM>
nM

>  <EC50>
49.5

$$$$

Give recorded EC50 with human TGR5 receptor (Homo sapiens, UniProt Q8TDU6) for the following compound: COCc1nnc(CC[C@@H](C)[C@H]2CC[C@H]3[C@@H]4[C@H](OC)C[C@@H]5C[C@H](O)CC[C@]5(C)[C@H]4CC[C@]23C)o1 22.6

###

biological target: UniProt Q8TDU6; assay: TGR5 cAMP assay; conditions: TGR5 agonist activity; cAMP production in a recombinant cell line expressing human TGR5 receptor
Here the recorded EC50 is given for each entry.
Give the number; nM is assumed, so skip it.

Below are worked cases with known answers.
>  <COMPOUND>
CO[C@@H]1C[C@@H]2C[C@H](O)CC[C@]2(C)[C@H]2CC[C@]3(C)[C@@H]([C@H](C)CCC(=O)NC[C@H](O)[C@@H](O)[C@H](O)[C@H](O)CO)CC[C@H]3[C@H]12 [Example 6]

>  <VALUE>
27.7

$$$$
>  <COMPOUND>
CO[C@@H]1C[C@@H]2C[C@H](O)CC[C@]2(C)[C@H]2CC[C@]3(C)[C@@H]([C@H](C)CCC(=O)O)CC[C@H]3[C@H]12 [Example 3]

>  <VALUE>
74.9

$$$$

Please examine the following record next.
Report EC50 for CO[C@@H]1C[C@@H]2C[C@H](O)CC[C@]2(C)[C@H]2CC[C@]3(C)[C@@H]([C@H](C)CCC(=O)N(C)C[C@H](O)[C@@H](O)[C@H](O)[C@H](O)CO)CC[C@H]3[C@H]12 [Example 7] please. 60.1
